Test system: pooled human cryopreserved hepatocytes (pHHeps)
Assay: Metabolic stability, pooled human cryopreserved hepatocyte incubations
Details: pHHeps, 3 min
# if measured % parent compound remaining, Average < 80%: satisfied  # else: not satisfied

Field: example entries. Status: answers known.
[[record]]
compound = "C=CCCCn1cc(C(=O)N[C@@H](C(=O)OC)C(C)C)c2ccccc21 [(R)-AMB-4en-PICA (7)]"
measured_on = "pooled human cryopreserved hepatocytes (pHHeps)"
category = "satisfied"

[[record]]
compound = "COC(=O)[C@@H](NC(=O)c1nn(Cc2ccc(F)cc2)c2ccccc12)C(C)C [(S)-AMB-FUBINACA (1)]"
measured_on = "pooled human cryopreserved hepatocytes (pHHeps)"
category = "satisfied"

[[record]]
compound = "CCOc1ccc2ccc(=O)oc2c1 [7-ethoxycoumarin, reference compound]"
measured_on = "pooled human cryopreserved hepatocytes (pHHeps)"
category = "not satisfied"


Please state whether % parent compound remaining, Average is below 80% for CC(C)[C@H](NC(=O)c1nn(Cc2ccc(F)cc2)c2ccccc12)C(N)=O [(S)-AB-FUBINACA (8)] not satisfied

Regarding COC(=O)[C@@H](NC(=O)c1nn(CCCCCF)c2ccccc12)C(C)(C)C [(S)-5F-MDMB-PINACA (2)] , kindly confirm whether its % parent compound remaining, Average is beneath 80%. satisfied

I'd appreciate it if you could check whether COC(=O)[C@@H](NC(=O)c1cn(CCCCCF)c2ccccc12)C(C)(C)C [(S)-5F-MDMB-PICA (3)] has % parent compound remaining, Average smaller than 80%. not satisfied

Given the entry COC(=O)[C@H](NC(=O)c1nn(CCCCCF)c2ccccc12)C(C)(C)C [(R)-5F-MDMB-PINACA (2)] , would its reported % parent compound remaining, Average be below 80%? not satisfied

Quick check: does COC(=O)C(NC(=O)c1nn(Cc2ccc(F)cc2)c2ccccc12)C(C)C (stereo in doubt) [(R)-AMB-FUBINACA (1)] have % parent compound remaining, Average under 80%? satisfied

These measurements were taken from paper PMC7961380.
